- System tested: GAK (Homo sapiens)
- Sequence (O14976 whole entry): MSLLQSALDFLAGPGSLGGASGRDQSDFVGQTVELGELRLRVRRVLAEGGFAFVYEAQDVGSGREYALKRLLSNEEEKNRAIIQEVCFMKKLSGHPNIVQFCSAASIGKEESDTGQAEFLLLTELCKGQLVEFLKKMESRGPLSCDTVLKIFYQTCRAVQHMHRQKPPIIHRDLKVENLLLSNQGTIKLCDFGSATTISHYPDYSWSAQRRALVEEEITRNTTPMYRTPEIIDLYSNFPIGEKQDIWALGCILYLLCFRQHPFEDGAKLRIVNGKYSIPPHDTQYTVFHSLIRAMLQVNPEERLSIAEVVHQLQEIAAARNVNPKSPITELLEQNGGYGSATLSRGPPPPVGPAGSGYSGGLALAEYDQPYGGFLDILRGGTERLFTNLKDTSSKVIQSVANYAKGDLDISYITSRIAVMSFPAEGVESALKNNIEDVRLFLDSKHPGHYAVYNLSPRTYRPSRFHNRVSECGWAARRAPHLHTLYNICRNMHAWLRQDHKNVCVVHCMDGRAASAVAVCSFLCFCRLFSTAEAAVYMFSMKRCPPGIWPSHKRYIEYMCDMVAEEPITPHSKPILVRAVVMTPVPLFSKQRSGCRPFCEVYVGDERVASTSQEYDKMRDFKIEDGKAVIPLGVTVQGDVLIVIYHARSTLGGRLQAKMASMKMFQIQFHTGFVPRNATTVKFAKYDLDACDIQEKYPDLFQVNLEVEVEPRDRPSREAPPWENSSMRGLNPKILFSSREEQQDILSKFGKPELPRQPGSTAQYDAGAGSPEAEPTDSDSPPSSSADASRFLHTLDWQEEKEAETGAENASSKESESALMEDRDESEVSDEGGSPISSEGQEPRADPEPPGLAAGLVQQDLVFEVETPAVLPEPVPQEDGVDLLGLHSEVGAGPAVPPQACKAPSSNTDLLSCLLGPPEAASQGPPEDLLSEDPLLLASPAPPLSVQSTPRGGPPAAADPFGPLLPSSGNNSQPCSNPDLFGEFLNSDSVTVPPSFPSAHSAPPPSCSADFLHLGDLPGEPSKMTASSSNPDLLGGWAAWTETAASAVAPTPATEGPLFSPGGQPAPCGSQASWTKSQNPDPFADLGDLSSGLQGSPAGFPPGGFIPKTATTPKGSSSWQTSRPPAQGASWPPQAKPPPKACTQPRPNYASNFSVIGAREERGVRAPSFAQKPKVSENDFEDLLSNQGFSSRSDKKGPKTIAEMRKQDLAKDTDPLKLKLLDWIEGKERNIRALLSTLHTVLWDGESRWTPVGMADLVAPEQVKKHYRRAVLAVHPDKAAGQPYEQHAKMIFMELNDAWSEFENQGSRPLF
- Measurement description: TR-FRET ligand-binding displacement assay
- Protocol conditions: TR-FRET assay; read-out: Biochemical GAK Ki
Consider the reported Ki of an entry and match it to a band in low group = under 20 nM, middle group = from 20 nM up to 60 nM, high group = 60 nM and over

Please report the category associated with Brc1ccc2nccc(Nc3cccc4oncc34)c2c1 [Compound 22] , nothing else.
low group

Please report the category associated with O=c1[nH]c2ccc(Nc3ccnc4ccc(Br)cc34)cc2o1 [Compound 40] , nothing else.
high group

Please report the category associated with O=S1(=O)Cc2ccc(Nc3ccnc4ccc(Br)cc34)cc2C1 [Compound 43] , nothing else.
high group

Please report the category associated with O=c1[nH]c2cc(Nc3ccnc4ccc(Br)cc34)ccc2o1 [Compound 41] , nothing else.
high group

Please report the category associated with Brc1ccc2nccc(Nc3cccc4c3OCO4)c2c1 [Compound 9] , nothing else.
low group

Please report the category associated with Brc1ccc2nccc(Nc3cccc4c3CCO4)c2c1 [Compound 17] , nothing else.
low group

Please report the category associated with Fc1c(F)c(F)c(Nc2ccnc3ccc(C(F)(F)F)cc23)c(F)c1F [Compound 12] , nothing else.
high group

Please report the category associated with Brc1ccc2nccc(Nc3cccc4ccoc34)c2c1 [Compound 20] , nothing else.
low group

Please report the category associated with Cn1c(=O)[nH]c2cc(Nc3ccnc4ccc(Br)cc34)ccc21 [Compound 42] , nothing else.
high group

Please report the category associated with Brc1ccc2nccc(Nc3cccc4[nH]ncc34)c2c1 [Compound 32] , nothing else.
low group

Please report the category associated with Brc1ccc2nccc(Nc3cccc4sccc34)c2c1 [Compound 26] , nothing else.
middle group

Please report the category associated with Brc1ccc2nccc(Nc3cccc4c3OCC4)c2c1 [Compound 18] , nothing else.
middle group

Please report the category associated with COc1cccc(Nc2ccnc3ccc(Br)cc23)c1OC [Compound 15] , nothing else.
high group

Please report the category associated with Brc1ccc2nccc(Nc3cccc4nonc34)c2c1 [Compound 28] , nothing else.
middle group

Please report the category associated with Fc1ccc2c(c1Nc1ccnc3ccc(Br)cc13)OCO2 [Compound 14] , nothing else.
low group

Please report the category associated with Brc1ccc2nccc(Nc3cccc4cnoc34)c2c1 [Compound 21] , nothing else.
middle group

Please report the category associated with FC1(F)Oc2cccc(Nc3ccnc4ccc(Br)cc34)c2O1 [Compound 16] , nothing else.
high group

Please report the category associated with Brc1ccc2nccc(Nc3cccc4scnc34)c2c1 [Compound 25] , nothing else.
middle group

Please report the category associated with Brc1ccc2nccc(Nc3cccc4nsnc34)c2c1 [Compound 29] , nothing else.
low group

Please report the category associated with Fc1ccc(Nc2ccnc3ccc(Br)cc23)c(F)c1 [Compound 11] , nothing else.
middle group

Please report the category associated with O=c1[nH]c2ccc(Nc3ccnc4ccc(Br)cc34)cc2[nH]1 [Compound 39] , nothing else.
high group

Please report the category associated with Brc1ccc2nccc(Nc3ccc4[nH]ncc4c3)c2c1 [Compound 37] , nothing else.
middle group

Please report the category associated with Brc1ccc2nccc(Nc3cccc4occc34)c2c1 [Compound 19] , nothing else.
low group

Please report the category associated with Fc1ccc(F)c(Nc2ccnc3ccc(Br)cc23)c1 [Compound 10] , nothing else.
low group

Please report the category associated with O=C1NCc2ccc(Nc3ccnc4ccc(Br)cc34)cc21 [Compound 38] , nothing else.
high group
